- TARGET OR SYSTEM: UniProt:P01116
- Sequence (P01116 whole entry): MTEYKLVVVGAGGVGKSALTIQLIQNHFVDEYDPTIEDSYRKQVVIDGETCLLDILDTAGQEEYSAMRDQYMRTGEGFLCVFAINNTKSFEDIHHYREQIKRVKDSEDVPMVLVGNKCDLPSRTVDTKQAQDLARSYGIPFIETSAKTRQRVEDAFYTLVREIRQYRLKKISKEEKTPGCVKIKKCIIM
- ASSAY NOTES: Binding to KRAS by surface plasmon resonance (SPR), Single Cycle Kinetics
- RUN CONDITIONS: SPR, Single Cycle Kinetics, 1:1 binding model; read-out: KD value with respect to GDP-bound KRAS wild-type protein
READOUT: Kd (nM)
Report the value in nM with no unit label.

CCC[C@H]1C(=O)N[C@@H]([C@@H](C)CC)C(=O)N2CCC[C@H]2C(=O)N(C)[C@H]2C/C=C\CCN(C2=O)[C@@H](Cc2ccc(C(F)(F)F)cc2)C(=O)N(C)CC(=O)N[C@@H](CCc2ccc(C(F)(F)F)c(OC)c2)C(=O)N2C[C@H](OCC)C[C@H]2C(=O)N(C)C2(CCC2)C(=O)N(C)[C@@H](C2CCCC2)C(=O)N(C)[C@H](C(=O)N2CCCCC2)CC(=O)N1C    0.61
CCC[C@H]1C(=O)N[C@@H]([C@@H](C)CC)C(=O)N2CCC[C@H]2C(=O)N(C)[C@H]2C/C=C\CCN(C2=O)[C@@H](Cc2ccc(C(F)(F)F)cc2)C(=O)N(C)CC(=O)N[C@@H](CCc2cc(F)c(C(F)(F)F)c(F)c2)C(=O)N2C[C@H](OCC)C[C@H]2C(=O)N(C)C2(CCC2)C(=O)N(C)[C@@H](C2CCCC2)C(=O)N(C)[C@H](C(=O)N2CCCCC2)CC(=O)N1C    4.5

Below: the item to evaluate.
stdin: Give UniProt:P01116 Kd for CCC[C@H]1C(=O)N[C@@H]([C@@H](C)CC)C(=O)N(C)CC(=O)N(C)[C@H]2C/C=C\CCN(C2=O)[C@@H](Cc2ccc(C(F)(F)F)cc2)C(=O)N(C)CC(=O)N[C@@H](CCc2cc(F)c(C(F)(F)F)c(F)c2)C(=O)N2C[C@H](OCC)C[C@H]2C(=O)N(C)C2(CCC2)C(=O)N(C)[C@@H](C2CCCC2)C(=O)N(C)[C@H](C(=O)N2CCCC2)CC(=O)N1C
stdout: 0.052
